Biological target: Tumour suppressor p53/oncoprotein Mdm2 (Homo sapiens)
Sequence (P04637 whole entry, the tested form may be a part): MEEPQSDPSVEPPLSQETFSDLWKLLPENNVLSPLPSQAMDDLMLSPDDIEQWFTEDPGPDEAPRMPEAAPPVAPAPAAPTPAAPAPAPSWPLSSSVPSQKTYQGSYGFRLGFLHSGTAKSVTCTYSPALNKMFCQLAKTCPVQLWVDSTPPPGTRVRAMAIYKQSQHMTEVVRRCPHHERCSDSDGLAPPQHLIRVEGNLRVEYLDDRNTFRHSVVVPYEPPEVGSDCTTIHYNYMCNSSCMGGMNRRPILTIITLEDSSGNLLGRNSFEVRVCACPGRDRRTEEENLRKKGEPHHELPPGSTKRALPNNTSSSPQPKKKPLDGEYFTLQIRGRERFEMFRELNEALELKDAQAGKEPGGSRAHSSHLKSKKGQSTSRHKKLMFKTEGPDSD
Sequence (Q00987 whole entry, the tested form may be a part): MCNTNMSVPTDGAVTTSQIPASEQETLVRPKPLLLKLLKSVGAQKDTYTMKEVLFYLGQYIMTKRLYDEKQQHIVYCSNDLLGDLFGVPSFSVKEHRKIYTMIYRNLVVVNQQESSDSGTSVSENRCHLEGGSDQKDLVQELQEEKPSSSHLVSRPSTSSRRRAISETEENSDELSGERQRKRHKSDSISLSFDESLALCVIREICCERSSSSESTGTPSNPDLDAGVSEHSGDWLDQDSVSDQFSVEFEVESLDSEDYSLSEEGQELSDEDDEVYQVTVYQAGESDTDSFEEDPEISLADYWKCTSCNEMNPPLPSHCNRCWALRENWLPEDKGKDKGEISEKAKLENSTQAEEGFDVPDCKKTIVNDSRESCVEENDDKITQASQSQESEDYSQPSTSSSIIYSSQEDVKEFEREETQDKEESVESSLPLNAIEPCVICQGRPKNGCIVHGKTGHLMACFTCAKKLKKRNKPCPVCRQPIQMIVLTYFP
Assay: Inhibition of human MDM2 (1 to 125 residues) and p53 (unknown origin) interaction pre-incubated for 20 mins before peptide-2-biot addition and measured after 3 hrs by HTRF assay
pIC50: −log10 of the molar value.
# key: entry, value: pIC50

# compound, testTarget, pIC50
records = [
    ("CC(C)(C)C[C@@H]1C=C(C(=O)NCCN2CCOCC2)[C@H](c2cccc(Cl)c2F)[C@]12C(=O)Nc1cc(Cl)ccc12 (racemic)", "Tumour suppressor p53/oncoprotein Mdm2 (Homo sapiens)", 7.48),
    ("CC(C)(C)CC1C=C(C(=O)NCCN2CCOCC2)C(c2cccc(Cl)c2F)C12C(=O)Nc1cc(Cl)ccc12 (single isomer, unassigned; (+))", "Tumour suppressor p53/oncoprotein Mdm2 (Homo sapiens)", 7.63),
    ("CC(C)(C)C[C@H]1C=C(C(=O)NCCN2CCOCC2)[C@H](c2cccc(Cl)c2F)[C@]12C(=O)Nc1cc(Cl)ccc12 (racemic)", "Tumour suppressor p53/oncoprotein Mdm2 (Homo sapiens)", 6.13),
]
